target: T1, human FcRn/b2M (human, UniProt P61769 21-119, biotinylated); test: SPR pH 6.0;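 also: surface plasmon resonance kinetics at 25 °C, diluted periplasmic extracts injected over immobilized ligand surfaces, 120 s association then 600–3600 s dissociation, running buffer containing 150 mM NaCl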
T1 construct: bought recombinant biotinylated protein (ACRO FCM-H82W4 or Immunitrack ITF01); also called hFcRn; hFcRn/hb2M
reported.endpoint: koff (s⁻¹)

A = T0263018B11 T57G (VHH, name in Kabat numbering, FLAG3-His6 tagged) VHH: EVQLVESGGGVVQPGGSLRLSCAASGFTFSSYAMYWVRQAPGKGLEWVSAISSGGGSGDYADSVKGRFTISRDNSKNTLYLQMNSLRPEDTALYYCAADTLYTSLTWYSYWGQGTLVTVSS
B = T0263018B11 S101V (VHH, name in Kabat numbering, FLAG3-His6 tagged) VHH: EVQLVESGGGVVQPGGSLRLSCAASGFTFSSYAMYWVRQAPGKGLEWVSAISSGGGSTDYADSVKGRFTISRDNSKNTLYLQMNSLRPEDTALYYCAADTLYTSLTWYVYWGQGTLVTVSS
C = T0263018B11 D58H (VHH, name in Kabat numbering, FLAG3-His6 tagged) VHH: EVQLVESGGGVVQPGGSLRLSCAASGFTFSSYAMYWVRQAPGKGLEWVSAISSGGGSTHYADSVKGRFTISRDNSKNTLYLQMNSLRPEDTALYYCAADTLYTSLTWYSYWGQGTLVTVSS
Sort the list above on koff in ascending fashion. Could you list the labels in the order requested? B, A, C
